Entry source: patent US20070078102A1

Here the recorded IC50 is given for each entry.
biological target: NF-kB p50/p50 homodimer (NFKB1) (Homo sapiens, UniProt P19838 P19838:1-433); test: competition; EMSA competition vs HIV NF-kB probe 113/114; settings: protein: extract; tags: endogenous, nuclear extract of LPS-stimulated THP-1 cells; chain copies: 2 (stated)
Sequence (P19838 1-433, one chain of several): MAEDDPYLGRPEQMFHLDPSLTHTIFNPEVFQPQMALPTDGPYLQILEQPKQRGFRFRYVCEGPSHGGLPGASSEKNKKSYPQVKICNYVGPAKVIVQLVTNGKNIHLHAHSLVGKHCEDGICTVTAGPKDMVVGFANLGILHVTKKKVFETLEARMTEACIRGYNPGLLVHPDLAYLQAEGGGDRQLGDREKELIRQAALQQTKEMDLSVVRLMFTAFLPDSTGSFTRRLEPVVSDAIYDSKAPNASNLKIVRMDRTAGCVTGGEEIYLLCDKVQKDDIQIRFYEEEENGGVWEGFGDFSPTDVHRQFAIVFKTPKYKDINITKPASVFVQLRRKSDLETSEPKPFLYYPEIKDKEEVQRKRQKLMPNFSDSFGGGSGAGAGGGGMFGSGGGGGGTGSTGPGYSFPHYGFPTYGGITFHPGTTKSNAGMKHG
Entry rule: numbers only, all in fold molar excess.

| binder | IC50 / fold molar excess |
| --- | --- |
| 153/154 H5/PO (dsDNA, strand 153: 5 3'-most linkages PS, strand 154 all PO) DNA 1: AGTTGAGGACTTTCCAGGC DNA 2: GCCTGGAAAGTCCTCAACT | 83 |
| 153/154 H8/H8 (dsDNA, 8 3'-most linkages PS on both strands) DNA 1: AGTTGAGGACTTTCCAGGC DNA 2: GCCTGGAAAGTCCTCAACT | 53 |
| 153/154 H9/H9 (dsDNA, 9 3'-most linkages PS on both strands) DNA 1: AGTTGAGGACTTTCCAGGC DNA 2: GCCTGGAAAGTCCTCAACT | 30 |
| 153/154 H8/H10 (dsDNA, strand 153: 8 3'-most linkages PS, strand 154: 10 3'-most PS) DNA 1: AGTTGAGGACTTTCCAGGC DNA 2: GCCTGGAAAGTCCTCAACT | 39 |
| 153/154 H11/PO (dsDNA, strand 153: 11 3'-most linkages PS, strand 154 all PO) DNA 1: AGTTGAGGACTTTCCAGGC DNA 2: GCCTGGAAAGTCCTCAACT | 33 |

Prompt: Consider the binder 153/154 H10/H10 (dsDNA, 10 3'-most linkages PS on both strands) DNA 1: AGTTGAGGACTTTCCAGGC DNA 2: GCCTGGAAAGTCCTCAACT and give its measured IC50.
Completion: 42

Prompt: For 153/154 H10/H8 (dsDNA, strand 153: 10 3'-most linkages PS, strand 154: 8 3'-most PS) DNA 1: AGTTGAGGACTTTCCAGGC DNA 2: GCCTGGAAAGTCCTCAACT then?
Completion: 21
